# Measured On: UniProtKB P22303
# Sequence (P22303 whole entry): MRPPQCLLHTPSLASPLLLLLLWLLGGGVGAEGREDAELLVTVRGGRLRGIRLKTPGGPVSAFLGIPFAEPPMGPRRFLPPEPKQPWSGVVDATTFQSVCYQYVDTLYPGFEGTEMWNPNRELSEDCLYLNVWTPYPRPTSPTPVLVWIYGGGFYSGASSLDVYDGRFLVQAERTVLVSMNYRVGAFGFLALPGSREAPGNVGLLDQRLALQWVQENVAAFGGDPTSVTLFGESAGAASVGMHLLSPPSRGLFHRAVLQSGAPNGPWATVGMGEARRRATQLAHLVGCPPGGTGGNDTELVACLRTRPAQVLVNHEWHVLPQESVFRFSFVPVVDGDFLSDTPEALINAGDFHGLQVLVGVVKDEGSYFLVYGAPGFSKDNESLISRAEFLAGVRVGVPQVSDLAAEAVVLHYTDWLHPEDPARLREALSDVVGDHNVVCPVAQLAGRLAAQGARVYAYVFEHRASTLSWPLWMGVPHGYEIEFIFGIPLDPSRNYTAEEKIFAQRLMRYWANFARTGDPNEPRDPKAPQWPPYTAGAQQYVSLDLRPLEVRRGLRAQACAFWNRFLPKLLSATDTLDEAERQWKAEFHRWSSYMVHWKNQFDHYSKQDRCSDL
# Method Description: Inhibition of AChE in human erythrocytes using acetylthiocholineiodide as substrate pre-incubated for 10 mins followed by substrate addition and measured for 6 mins by DTNB reagent based Ellman's method
# Type: cell-based, Erythrocyte
Flag rule - IC50 less than 80 nM flags fulfilled; the remaining entries get not fulfilled.

| Molecule | Group Label |
| --- | --- |
| CCOC(=O)c1c(C)nc(N2CCN(S(=O)(=O)c3ccc(NC(C)=O)c(F)c3)CC2)nc1-c1ccc(OC)c(OC)c1 | fulfilled |

IC50 strictly < 80 nM for this compound? CCOC(=O)c1c(C)nc(N2CCN(S(=O)(=O)c3ccc(N)c(OC)c3)CC2)nc1-c1ccccc1
not fulfilled

* * *

# Measured On: UniProt P06276
# Method Description: Inhibition of BuChE (unknown origin) by DTNB reagent based Ellman's method
Endpoint: IC50 (µM)
Answers are plain numbers, in µM.

# returns recorded IC50 (system: UniProt P06276) for CCc1ccc(NC(=O)COc2c(Cl)cc(Cl)cc2S(=O)(=O)N2CCN(C(=O)c3ccco3)CC2)cc1
9.15

* * *

Give pIC50 for every item shown.
# Measured On: Cholinesterase (Homo sapiens, UniProt P06276)
# Sequence (P06276 whole entry): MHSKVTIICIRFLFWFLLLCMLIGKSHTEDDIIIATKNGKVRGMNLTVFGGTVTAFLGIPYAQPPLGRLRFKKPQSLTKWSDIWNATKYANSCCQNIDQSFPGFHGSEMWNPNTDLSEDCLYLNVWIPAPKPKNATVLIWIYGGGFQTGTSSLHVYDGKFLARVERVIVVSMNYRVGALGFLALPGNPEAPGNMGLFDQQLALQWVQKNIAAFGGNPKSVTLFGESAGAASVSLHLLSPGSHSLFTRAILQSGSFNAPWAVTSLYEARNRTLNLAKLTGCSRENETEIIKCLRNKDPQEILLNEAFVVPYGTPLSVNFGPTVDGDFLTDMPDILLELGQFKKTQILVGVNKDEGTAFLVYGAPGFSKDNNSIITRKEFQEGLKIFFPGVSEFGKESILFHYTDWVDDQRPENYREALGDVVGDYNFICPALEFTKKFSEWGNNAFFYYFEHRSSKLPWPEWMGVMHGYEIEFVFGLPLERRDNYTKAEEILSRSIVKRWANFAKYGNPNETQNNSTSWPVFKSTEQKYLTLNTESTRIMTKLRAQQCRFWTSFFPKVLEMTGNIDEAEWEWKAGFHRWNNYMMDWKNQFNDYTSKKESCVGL
# Method Description: Inhibition of BuChE in human serum using butyrylthiocholineiodide as substrate pre-incubated for 10 mins followed by substrate addition and measured for 6 mins by DTNB reagent based Ellman's method
# Type: cell-free
One number for each entry, as −log10 of the molar value.

Check out these entries, answers already filled in.
| Molecule | Measured On | Endpoint | Endpoint Value |
| --- | --- | --- | --- |
| CCOC(=O)c1c(C)nc(N2CCN(S(=O)(=O)c3ccc(NC(C)=O)c(Cl)c3)CC2)nc1-c1ccccc1 | Cholinesterase (Homo sapiens, UniProt P06276) | pIC50 | 6.81 |
| CCOC(=O)c1c(C)nc(N2CCN(S(=O)(=O)c3ccc(NC(C)=O)c(F)c3)CC2)nc1-c1ccc(OC)cc1 | Cholinesterase (Homo sapiens, UniProt P06276) | pIC50 | 6.77 |
| CCOC(=O)c1c(C)nc(N2CCN(S(=O)(=O)c3ccc(N)c(Cl)c3)CC2)nc1-c1ccc(OC)cc1 | Cholinesterase (Homo sapiens, UniProt P06276) | pIC50 | 6.75 |
| CCOC(=O)c1c(C)nc(N2CCN(S(=O)(=O)c3ccc(N)c(F)c3)CC2)nc1-c1ccc(OC)c(OC)c1 | Cholinesterase (Homo sapiens, UniProt P06276) | pIC50 | 6.75 |
| CCOC(=O)c1c(C)nc(N2CCN(S(=O)(=O)c3ccc(N)c(OC)c3)CC2)nc1-c1ccccc1 | Cholinesterase (Homo sapiens, UniProt P06276) | pIC50 | 6.73 |
| CCOC(=O)c1c(C)nc(N2CCN(S(=O)(=O)c3ccc(N)cc3)CC2)nc1-c1ccc(OC)cc1 | Cholinesterase (Homo sapiens, UniProt P06276) | pIC50 | 6.72 |
| CCOC(=O)c1c(C)nc(N2CCN(S(=O)(=O)c3ccc(NC(C)=O)c(OC)c3)CC2)nc1-c1ccc(OC)cc1 | Cholinesterase (Homo sapiens, UniProt P06276) | pIC50 | 6.71 |
| CCOC(=O)c1c(C)nc(N2CCN(S(=O)(=O)c3ccc(N)c(Cl)c3)CC2)nc1-c1ccccc1 | Cholinesterase (Homo sapiens, UniProt P06276) | pIC50 | 6.86 |
| CCOC(=O)c1c(C)nc(N2CCN(S(=O)(=O)c3ccc(NC(C)=O)cc3)CC2)nc1-c1ccc(OC)c(OC)c1 | Cholinesterase (Homo sapiens, UniProt P06276) | pIC50 | 6.78 |
| CCOC(=O)c1c(C)nc(N2CCN(S(=O)(=O)c3ccc(NC(C)=O)c(F)c3)CC2)nc1-c1ccc(OC)c(OC)c1 | Cholinesterase (Homo sapiens, UniProt P06276) | pIC50 | 6.73 |

Look up pIC50 for the entries below, preserving their order.
1. CCOC(=O)c1c(C)nc(N2CCN(S(=O)(=O)c3ccc(N)c(F)c3)CC2)nc1-c1ccc(OC)cc1
2. CCOC(=O)c1c(C)nc(N2CCN(S(=O)(=O)c3ccc(NC(C)=O)c(F)c3)CC2)nc1-c1ccccc1

1: 6.81; 2: 6.71

Where these numbers come from: ChEMBL document CHEMBL4732210
